- Target or test system: T1, recombinant cynomolgus TREM2 ECD (cynomolgus, UniProt A0A2K5UY34 49-204)
- T1 construct: extracellular domain; also called cyno TREM2
- T1 sequence: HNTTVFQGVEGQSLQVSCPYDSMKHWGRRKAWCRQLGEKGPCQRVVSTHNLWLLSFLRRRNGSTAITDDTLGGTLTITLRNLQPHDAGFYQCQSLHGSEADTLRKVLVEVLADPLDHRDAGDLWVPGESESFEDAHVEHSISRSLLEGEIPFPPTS
- Assay name: SPR (Biacore), cynomolgus TREM2
Could you please report measured pKd for the items listed next?
One number for each entry, as −log10 of the molar value.

INSERT INTO measurements (binder, quantitative_result) VALUES
  ('CL0020188-4 (antibody, V domains shown, Humanized variant of CL0020188) VH: EVQLVESGGGLVQPGGSLRLSCAGSGFTFTDFYMSWVRQAPGKGPEWLSVIRNKANGYTAGYNPSVKGRFTISRDNSKNTLYLQMNSLRAEDTAVYYCARLTYGFDYWGQGTLVTVSS VL: DIVMTQTPLSLPVTPGEPASISCQSSKSLLHSTGKTYLNWYLQKPGQSPQLLIYWMSTRASGVPDRFSGSGSGTDFTLKISRVEAEDVGVYYCQQFLEYPFTFGQGTKVEIK', 8.82);

API: the following record is the query input.
[in] Provide pKd value for the following binder: Reference antibody #3 (antibody, V domains shown, also called AL2p-58 (WO 2019/028292)) VH: QVQLVQSGAEVKKPGASVKVSCKASGYAFSSQWMNWVRQAPGQRLEWIGRIYPGGGDTNYAGKFQGRVTITADTSASTAYMELSSLRSEDTAVYYCARLLRNQPGESYAMDYWGQGTLVTVSS VL: DVVMTQSPDSLAVSLGERATINCRSSQSLVHSNRYTYLHWYQQKPGQSPKLLIYKVSNRFSGVPDRFSGSGSGTDFTLKISRVEAEDVGVYYCSQSTRVPYTFGQGTKLEIK
[out] 8.04
